- System: IGROV1 ovarian
- Assay details: NCI-60 one-dose screen, 48 h (100 = growth as untreated, 0 = no growth, -100 = all killed)
- Test parameters: 10 µM unless noted
The panel holds about 83,000 compounds, 20% with a hit somewhere; the sample as a whole holds those more often. Calls of active or inactive are those of the source. The calls were made as follows: active = growth percent below 10; inactive = the rest.
Property: growth; scope: individual compounds

Compound	growth
COc1cc2c(cc1OC)C(CC1(O)CCCCC1)N(S(=O)(=O)c1ccc(C)cc1)CC2 (stereo not given)	53.6% [100 µM] (inactive)
N/C(=N\C(N)=N\c1nc2ccccc2s1)c1ccnc(Cl)c1	37.2% (inactive)
CCN(CC)c1ccc(/C=C/C(=O)c2cccc(NS(C)(=O)=O)c2)cc1	9.33% (active)
COc1cc(-c2nnc(-c3nc(-c4cc(OC)c(OC)c(OC)c4)n4ccccc34)o2)ccc1N	56.4% (inactive)
COc1ccc(-c2cnc(SCC(=O)Nc3ccc(-c4nc5ccccc5s4)cc3)n2-c2ccc(OC)cc2)cc1	91.5% (inactive)

----------
- Tested on: MOLT-4 leukemia
- Assay details: NCI-60 one-dose screen, 48 h
- Test parameters: 10 µM unless noted
This is part of a sample that, as a whole, favours compounds with a hit. Of some 83,000 tested, about 20% had one in any assay. Activity calls are given as the source filed them. How the source made its calls: active means growth percent below 10; inactive means the rest.
Outcome codes: Yes (active), No (inactive)

Compound	Answer label
Nc1nc(Nc2ccccc2SSc2ccccc2Nc2nc(N)nc(C(Cl)(Cl)Cl)n2)nc(C(Cl)(Cl)Cl)n1	No
COc1cc(/C=C2\CN(C)CC3=C2Nc2nc(SC)[nH]c(=O)c2C3c2cc(OC)c(OC)c(OC)c2)cc(OC)c1OC (stereo not given)	Yes
COc1ccc2nc(NC(=O)CN3CCn4c(nnc4C(F)(F)F)C3)sc2c1	No
CCCCNCCCN(CCCC)CCCNCCCC	No
COc1cccc(CCN2C(=O)CCC3=C2CCC3=O)c1	No
CC[C@@H](C)/C=C(C)/C=C/C(=O)c1c(O)c(-c2ccc(O)cc2)cn(OC2CC(=O)CCC(C)OC(=O)CC2O)c1=O (stereo not given in full)	Yes
CC(NC(N)=S)c1ccccc1 (stereo not given)	No
N#Cc1c(-c2ccccc2)cc(-c2ccccc2)n(CCCC(=O)O)c1=O	No
Cc1ccccc1NC(=O)N/C(N)=N/c1nc2ccccc2s1	No
COC(=O)c1cc2oc(/C=N\NC(=O)c3cc4oc(C)c(C)c4[nH]3)cc2[nH]1	No

----------
- Tested on: U251 CNS
- Assay details: NCI-60 one-dose screen, 48 h (100 = growth as untreated, 0 = no growth, -100 = all killed)
- Test parameters: 10 µM unless noted
The panel holds about 83,000 compounds, 20% with a hit somewhere; the sample as a whole holds those more often.
Each entry falls in a class defined on growth; the bands are Low (below 40%), Medium (40% to below 90%), High (90% or more)

Molecule	Answer label
Cc1c2oc3c(C)ccc(C(=O)OC(C)C4NC(=O)C(C(C)C)N(C)C(=O)CN(C)C(=O)C5CCCN5C(=O)C(C(C)C)NC4=O)c3nc-2c(C(=O)OC(C)C2NC(=O)C(C(C)C)N(C)C(=O)CN(C)C(=O)C3CCCN3C(=O)C(C(C)C)NC2=O)c(N)c1=O (centres undefined)	Low
Cc1ccc2nc(SCC(=O)Nc3ccc(-c4nc5ccccc5s4)c(Cl)c3)[nH]c2c1	High
COc1ccc(C2CC(c3ccc4c(c3)OCO4)=NN2C=O)cc1 (centres undefined)	High
C/C(=C\CCc1ccoc1)CC/C=C(\C)CCCN1CCOCC1	Medium
O=C(Nc1ccccc1)P(=O)(O)c1ccccc1	High
Clc1ccc2[nH]cc(-c3cncn3CCc3ccccc3)c2c1	Medium
O=C(C(=O)c1cc(Br)ccc1O)c1cc(Br)ccc1O	Medium
COc1ccc(C2=NN(C(N)=S)C(c3ccc4c(c3)OCO4)C2)cc1 (centres undefined)	Low
